Every entry's value here was drawn from the Human Domainome abundance scans (Beltran et al. 2025).

B1: Chromodomain-helicase-DNA-binding protein 4, residues 444 to 496; numbered along this chain, Q14839 (parent)
chain: EDDHHMEFCRVCKDGGELLCCDTCPSSYHIHCLNPPLPEIPNGEWLCPRCTCP

# Variants of: B1
# METHOD_NOTES: abundance fitness (aPCA) (normalised: wild type 0, dead -1); higher = more abundant; growth selection in yeast, the domain comes from the species named
# SETUP_CONDITIONS: Homo sapiens
Entries and their measured abundance fitness follow.

Consider the worked cases shown below.
{"columns": ["MUTATION_DESCRIPTOR", "ENDPOINT_NAME", "RESULT"],
 "data": [
  ["C50L", "abundance fitness", -0.845],
  ["L33Q", "abundance fitness", -0.602],
  ["S27K", "abundance fitness", -0.082],
  ["H4V", "abundance fitness", -0.008],
  ["R10A", "abundance fitness", -0.17]
]}

# input Any idea what abundance fitness was measured for F8M ?
# output -0.073

# input Try this variant next: Y28G
# output -0.605

# input Again, but for R10N
# output 0.003

# input And what about the variant E39Y ?
# output -0.201

# input Also, Y28V please.
# output -0.471

# input Another: G16P
# output -1.18

# input Follow-up item: C32R
# output -0.857

# input And for C12S ?
# output -0.971

# input And then T23D , what is it?
# output -0.305

# input Same thing, different variant: F8L
# output -0.164
